- System: UACC-257 melanoma
- Assay method text: NCI tumour cell line growth inhibition, 48 h
Readout: TGI

molecule=Fc1ccc2c(c1)cc1ccc3cccc4ccc2c1c34 reported="> 100 µM"
molecule=CC(C)(C)OC(=O)N1CCC(NC(=O)NC2CCN(C(=O)OC(C)(C)C)CC2)CC1 reported="> 100 µM"

State recorded TGI for all listed molecules.
1. CN(C)C1C(=O)C(C(N)=O)=C(O)C2(O)C(=O)C3=C(O)c4c(O)cccc4C(C)(O)C3CC12 (configuration not stated)
2. COC1C(OC(C)=O)CC(=O)OC(C)C/C=C/C=C\C(O)C(C)CC(CC=O)C1OC1OC(C)C(OC2CC(C)(O)C(OC(=O)CC(C)C)C(C)O2)C(N(C)C)C1O (configuration not stated)
3. COc1cc(/C=C2\Cc3ccccc3C2=O)cc(OC)c1OC
4. Cn1c(O)c(C=Nc2ccc(Cl)cc2Cl)c(=O)n(C)c1=O
5. NS(=O)(=O)c1ccc(N2C(=O)C(=O)N(c3ccccc3)C2=S)cc1

1: > 100 µM; 2: > 100 µM; 3: > 100 µM; 4: > 100 µM; 5: > 100 µM

State recorded TGI for all listed molecules.
1. CNC(=O)OCC1=C(COC(=O)NC)C(C)N(c2ccccc2)C1 (configuration not stated)
2. CC1(C)OC2COC(c3[nH]nc4c(=O)[nH]c(=O)[nH]c34)C2O1 (configuration not stated)
3. CC1=CC2=C(C#N)C(=O)OC2(C)C(c2ccccc2)C1 (configuration not stated)
4. CCOC(OCC)[C@H](N)[C@@H](O)[C@@H](O)[C@H]1COC(C)(C)O1
5. COc1ccc(S(=O)(=O)Nc2ccc(-c3csc(N4C(=O)/C(=C/c5cccs5)N=C4c4ccccc4)n3)cc2)cc1Cl
6. COC(=O)[C@H](Cc1cn(C)cn1)NC(=O)[C@@H](NC(=O)Nc1cc(C(F)(F)F)cc(C(F)(F)F)c1)C(C)(C)C
7. O=C(Nc1nccs1)NS(=O)(=O)n1cnc2ccccc21
8. CCC(C)(C)NS(=O)(=O)c1ccccc1

["> 100 µM", "> 100 µM", "> 100 µM", "> 100 µM", "> 100 µM", "> 10 µM", "> 100 µM", "> 100 µM"]

State recorded TGI for all listed molecules.
1. O=C1NC(N2CCCCC2)=N/C1=C\c1ccccc1
2. CCCc1n(Cc2ccc3ccccc3n2)cc[n+]1Cc1ccc2ccccc2c1
3. COC(=O)CCCNC(=O)C(=O)c1c(O)c(O)c(C(C)C)c2cc(C)c(-c3c(C)cc4c(C(C)C)c(O)c(O)c(C(=O)C(=O)NCCCC(=O)OC)c4c3O)c(O)c12
4. CC1=CC(=O)/C(=C/N2C(=O)CNC2=S)C(=O)O1

["> 100 µM", "1.72 µM", "6.19 µM", "> 100 µM"]

State recorded TGI for all listed molecules.
1. O=C1c2cc([N+](=O)[O-])sc2C(=O)c2cc([N+](=O)[O-])sc21
2. COc1ccc(-c2c3c(nc4[nH]c(=S)[nH]c(=S)c24)CCCC3)cc1OC
3. O=C(Nc1ccc(N2CCNCC2)cn1)c1[nH]ncc1Nc1ncnc2sccc12

1. 11.8 µM
2. > 100 µM
3. 36.7 µM

###

- System: CCRF-CEM leukemia
- Assay method text: NCI tumour cell line growth inhibition, 48 h
Assignment: determine reported TGI for the given compounds.

State recorded TGI for all listed compounds.
1. COc1cc2c(cc1OC)-c1ncc3cc(OC)c(OC)cc3c1C2
2. [N-]=[N+]=NC1C2CC3CC(C2)CC1C3 (stereo not drawn)
3. COc1ccc2c(c1)OC1c3ccccc3OCC21 (stereo not drawn)
4. CCOc1cc(/C=C2\N=C(c3ccccc3)N(c3nc4ccccc4s3)C2=O)ccc1O
5. N/C(=N\N=C\c1ccc(O)c(O)c1)NO
6. CC1(C)Oc2ccccc2[N+]([O-])=C1c1ccccc1

1. > 50 µM
2. > 100 µM
3. > 100 µM
4. > 100 µM
5. > 100 µM
6. > 100 µM
